Task for the reader: assign each of the following molecules its reported ED50.
system: platelet aggregation induced by thrombin; assay: Platelet aggregation inhibitory activity in vivo (Born aggregometer), thrombin-induced; design: species or system New Zealand rabbits; conditions: Oryctolagus cuniculus, Platelet, ip, dose for 50% inhibition of thrombin-induced aggregation curve; rabbits, intraperitoneal, blood 2, 4 and 6 hours after injection; read-out: platelet antiaggregant activity (AAP), DI50, Thrombin

Which ED50 is listed for C=CCCCOc1ccc(C(=O)NCc2cccnc2)cc1C(=O)NCc1cccnc1 [Example 9] ? 23.2 mg/kg

Now give it for CCC(C)Oc1ccc(C(=O)NCc2cccnc2)cc1C(=O)NCc1cccnc1 (stereo not shown) [Example 14] too. 29.7 mg/kg

Now give it for COc1c(Cl)cc(C(=O)NCc2cccnc2)cc1C(=O)NCc1cccnc1 [Example 23] too. 46.9 mg/kg

Now give it for O=C(NCc1ccncc1)c1ccc(O)c(C(=O)NCc2ccncc2)c1 [Example 57] too. 19.2 mg/kg

Now give it for CC(C)CCOc1ccc(C(=O)NCc2ccncc2)cc1C(=O)NCc1ccncc1 [Example 63] too. 28.4 mg/kg

Now give it for CC=COc1c(Cl)cc(C(=O)N(Cc2cccnc2)C(C)(C)CC)cc1C(=O)N(Cc1cccnc1)C(C)(C)CC [Example 47] too. 36.2 mg/kg

Now give it for CC=CCOc1ccc(C(=O)N(C)Cc2cccnc2)cc1C(=O)N(C)Cc1cccnc1 [Example 53] too. 19.6 mg/kg

Now give it for COc1cc(C(=O)NCc2cccnc2)cc(C(=O)NCc2cccnc2)c1OC1CCC1 [Example 19] too. 25.2 mg/kg

Now give it for CCCCCCOc1ccc(C(=O)NCc2ccncc2)cc1C(=O)NCc1ccncc1 [Example 60] too. 17.5 mg/kg

Now give it for CC(C)CCOc1c(Cl)cc(C(=O)NCc2cccnc2)cc1C(=O)NCc1cccnc1 [Example 27] too. 27.9 mg/kg

Now give it for C=CC(C)Oc1ccc(C(=O)NCc2ccncc2)cc1C(=O)NCc1ccncc1 (stereo not shown) [Example 64] too. 24 mg/kg

Now give it for CCCOc1ccc(C(=O)NCc2ccncc2)cc1C(=O)NCc1ccncc1 [Example 59] too. 18.1 mg/kg

Now give it for C=CCOc1c(OC)cc(C(=O)NCc2cccnc2)cc1C(=O)NCc1cccnc1 [Example 17] too. 32.6 mg/kg

Now give it for C=CC(C)Oc1ccc(C(=O)NCc2cccnc2)cc1C(=O)NCc1cccnc1 (stereo not shown) [Example 54] too. 21.2 mg/kg

Now give it for C#CCOc1ccc(C(=O)NCc2cccnc2)cc1C(=O)NCc1cccnc1 [Example 22] too. 24.4 mg/kg

Now give it for CC(C)Oc1ccc(C(=O)NCc2cccnc2)cc1C(=O)NCc1cccnc1 [Example 12] too. 30.9 mg/kg

Now give it for COc1ccc(C(=O)N(C)Cc2cccnc2)cc1C(=O)N(C)Cc1cccnc1 [Example 39] too. 42 mg/kg

Now give it for CC(C)(C)Oc1ccc(C(=O)NCc2cccnc2)cc1C(=O)NCc1cccnc1 [Example 16] too. 30.3 mg/kg

Now give it for O=C(NCc1cccnc1)c1cc(C(=O)NCc2cccnc2)c(O)c([N+](=O)[O-])c1 [Example 31] too. 27 mg/kg

Now give it for COc1cc(C(=O)NCc2cccnc2)cc(C(=O)NCc2cccnc2)c1OCC(C)(C)C [Example 37] too. 32 mg/kg

Now give it for COc1cc(C(=O)NCc2cccnc2)cc(C(=O)NCc2cccnc2)c1OC1CCCC1 [Example 20] too. 21.4 mg/kg

Now give it for COc1cc(C(=O)NCc2cccnc2)cc(C(=O)NCc2cccnc2)c1OC1CCCCC1 [Example 21] too. 24.5 mg/kg
